Settings: 293.15 K; 101 kPa
Recorded viscosity for the following molecules
Output spec: scalar in mPa·s, unitless text.

Below, 3 molecules whose answers are already recorded.
1. CCn1cc[n+](C)c1.O=S(=O)([O-])C(F)(F)F = 48.6
2. CN(C)CCO = 4.27
3. Cc1ccccc1O = 9.56

Turning to the following molecule.
Fill in reported viscosity for this entry: O=C([O-])CC(O)(CC(=O)[O-])C(=O)[O-].[NH3+]CCO.[NH3+]CCO.[NH3+]CCO
183.9

* * *

Settings: 298.15 K; 101 kPa
Field 'label' (enum: rule met / rule not met). Set to rule met when viscosity is strictly under 1 mPa·s; else rule not met.

A selection of reference data follows.
1) CC1CCCO1 (stereo not given) = rule met
2) CN(C)CCO = rule not met

In the record for ClCC(Cl)Cl , is viscosity less than 1 mPa·s?
rule not met

In the record for CC(=O)OC(C)(C)C , is viscosity less than 1 mPa·s?
rule met

In the record for CCCCCOC(=O)CCC , is viscosity less than 1 mPa·s?
rule not met

* * *

Experiment: xn = mol fraction of the nth substance listed
Details: 303.15 K; 100 kPa; x1 = 0.4003
Lab note: compare viscosity against 20 mPa·s. Equal or greater, write Y. Smaller, write N.

1) C1CCC2=[NH+]CCCN2CC1.c1nc[n-]n1 + CCO = Y
2) C1CCC2=[NH+]CCCN2CC1.c1nc[n-]n1 + CS(C)=O = Y
3) C1CCC2=[NH+]CCCN2CC1.c1nc[n-]n1 + CCCCO = Y
4) C1CCC2=[NH+]CCCN2CC1.c1nc[n-]n1 + CO = Y
5) C1CCC2=[NH+]CCCN2CC1.c1nc[n-]n1 + CC(C)O = Y

Reported viscosity at or above 20 mPa·s? C1CCC2=[NH+]CCCN2CC1.c1nc[n-]n1 + CN(C)C=O
N

* * *

Conditions: 323.15 K; 101.33 kPa
± gives the uncertainty stated by the source.
property-name: viscosity

Below, 3 compounds whose answers are already recorded.
1. Cc1ccccc1O = 2.83 ± 0.079 mPa·s
2. CCCCCC = 0.2524 ± 0.003 mPa·s
3. CC(C)CO = 1.663 ± 0.017 mPa·s

Fill in reported viscosity for this entry: CCCCCOC(C)=O
0.552 ± 0.12 mPa·s

* * *

Recorded viscosity for the following compounds
Conditions: 303.15 K; 100 kPa
± gives the uncertainty stated by the source.

Below, 3 compounds whose answers are already recorded.
1. CCCCCC = 0.2941 ± 0.005 mPa·s
2. CCCCCCCC[P+](CC)(CC)CC.O=[N+]([O-])c1cnc[n-]1 = 212 ± 9 mPa·s
3. C=CC(=O)OCCCC = 0.782 ± 0.011 mPa·s

Turning to the following compound.
Fill in reported viscosity for this entry: C1CCC2=[NH+]CCCN2CC1.c1nc[n-]n1
1356 ± 170 mPa·s

* * *

Experiment: xn = mol fraction of the nth substance listed
Conditions: 298.15 K; 101 kPa; x2 = 0.5
± gives the uncertainty stated by the source.
Recorded viscosity for the following molecules
Show the value, then the unit it is measured in.

1) CCCCCOC(C)=O + Oc1ccccc1 = 1.105 ± 0.011 mPa·s
2) CCCCCOC(C)=O + Cc1ccc(O)cc1 = 1.169 ± 0.011 mPa·s
3) CCCCCOC(C)=O + Cc1ccccc1O = 1.165 ± 0.011 mPa·s
4) CCCCCOC(C)=O + Cc1cccc(O)c1 = 1.167 ± 0.011 mPa·s
5) CCCCCOC(C)=O + CCOc1ccccc1 = 0.855 ± 0.0085 mPa·s

Turning to the following molecule.
Fill in reported viscosity for this entry: CCCCCOC(C)=O + COc1ccccc1
0.8265 ± 0.0082 mPa·s

Data credit: the CheMixHub viscosity set
